// provenance: paper PMC11375794

biological target: full-length Hsp90β (Homo sapiens, UniProt P08238); construct: For the protein expression of full-length Hsp90β, we received plasmids as a kind gift; test: Microscale thermophoresis (MST) binding to Hsp90β; conditions: full-length Hsp90β, absence of Cdc37
recordedEndpoint: Kd (µM)
Answers are plain numbers, in µM.

CN(CCOc1ccccc1)C(=O)c1csc(Nc2cc(N3CCNCC3)ncn2)n1
70.8

# input Quick one: Kd of O=C(NCCOc1ccccc1)c1ccc(Nc2cc(N3CCNCC3)ncn2)cc1 [Compound 13g] ?
# output 73.3

----------
biological target: full-length Hsp90β and Cdc37 (Homo sapiens); construct: host or cells: Escherichia coli strain Rosetta (Hsp90β); assay: MST PPI inhibition evaluation: Kd for Hsp90β in the presence of Cdc37; type: binding; conditions: 2.0 μM Cdc37
recordedEndpoint: Kd (µM)
Numbers only, in µM.

# input Returns the measured Kd for the input molecule. Input: CN(CCOc1ccccc1)C(=O)c1csc(Nc2cc(N3CCNCC3)ncn2)n1
# output 98.2

----------
target: full-length Hsp90β and Cdc37 (Homo sapiens, UniProt P08238); construct: host or cells: Escherichia coli strain Rosetta (Hsp90β); assay: MST PPI inhibition evaluation: Kd for Hsp90β in the presence of Cdc37; format: binding; conditions: 0.5 μM Cdc37
Sequence (P08238 whole entry): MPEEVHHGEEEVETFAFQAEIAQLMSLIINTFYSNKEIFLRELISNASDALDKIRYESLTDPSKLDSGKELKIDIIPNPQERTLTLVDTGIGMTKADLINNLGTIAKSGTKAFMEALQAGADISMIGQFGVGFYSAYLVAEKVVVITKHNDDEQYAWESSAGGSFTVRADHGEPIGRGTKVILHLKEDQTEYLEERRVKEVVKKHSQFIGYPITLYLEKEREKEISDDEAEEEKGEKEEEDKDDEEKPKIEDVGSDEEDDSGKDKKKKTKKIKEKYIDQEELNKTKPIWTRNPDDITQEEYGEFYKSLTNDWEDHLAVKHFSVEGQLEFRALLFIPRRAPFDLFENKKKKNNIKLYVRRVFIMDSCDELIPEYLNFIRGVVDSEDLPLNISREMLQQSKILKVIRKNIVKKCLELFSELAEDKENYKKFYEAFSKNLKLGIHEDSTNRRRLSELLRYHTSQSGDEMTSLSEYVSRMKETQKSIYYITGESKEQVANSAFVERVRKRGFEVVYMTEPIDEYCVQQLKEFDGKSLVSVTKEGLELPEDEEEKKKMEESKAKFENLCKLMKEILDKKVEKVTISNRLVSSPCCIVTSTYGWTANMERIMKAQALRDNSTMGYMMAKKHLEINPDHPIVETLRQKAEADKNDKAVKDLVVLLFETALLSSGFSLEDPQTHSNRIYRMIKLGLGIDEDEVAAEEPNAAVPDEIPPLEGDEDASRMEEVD
recordedEndpoint: pKd
Answers are plain numbers, as −log10 of the molar value.

# input If you can, please state the reported pKd value of CN(CCOc1ccccc1)C(=O)c1csc(Nc2cc(N3CCNCC3)ncn2)n1 [Compound 8c] .
# output 4.09

----------
molecular target: full-length Hsp90β and Cdc37 (Homo sapiens, UniProt P08238); construct: host or cells: Escherichia coli strain Rosetta (Hsp90β); test: MST PPI inhibition evaluation: Kd for Hsp90β in the presence of Cdc37; assay type: binding; details: 1.0 μM Cdc37
recordedEndpoint: Kd (µM)
Answers are plain numbers, in µM.

# input Any idea what Kd was measured for CN(CCOc1ccccc1)C(=O)c1csc(Nc2cc(N3CCNCC3)ncn2)n1 ?
# output 90.2

----------
system: leukemia cell line THP-1; assay: MTS cell viability (antiproliferative) assay in THP-1; assay type: cell-based; settings: Homo sapiens, THP-1, 72 hours, mean ± SD
pIC50: −log10 of the molar value.
recordedEndpoint: pIC50

O=C(NCCOc1ccccc1)c1ccc(Nc2cc(N3CCCC3)ncn2)cc1 [Compound 11g]
< 4.30
CN(CCOc1ccccc1)C(=O)c1csc(Nc2cc(N3CCNCC3)ncn2)n1 [Compound 8c]
4.47
O=C(NCCOc1ccccc1)c1cccc(Nc2cc(N3CCNCC3)ncn2)c1 [Compound 13b]
< 4.30

Give one value of pIC50 per listed compound.
1. Cc1nc(Nc2nc(C(=O)N(C)CCOc3ccccc3)cs2)cc(C2CCCN(CC#N)C2)n1 (centres unmarked) [Compound 1]
2. Cc1cc(C)c(S(=O)(=O)N(CC(=O)O)c2ccc(Nc3ccnc(N4CCCC4)n3)cc2)c(C)c1 [DDO-5936, reference compound]
3. CN(CCOc1ccccc1)C(=O)c1csc(Nc2cc(N3CCCC3)ncn2)n1 [Compound 6c]
4. O=C(NCCOc1ccccc1)c1ccc(Nc2cc(N3CCNCC3)ncn2)cc1 [Compound 13g]
5. O=C(NCCOc1ccccc1)c1cccc(Nc2cc(N3CCCC3)ncn2)c1 [Compound 11b]

# output
["< 4.30", "< 4.30", "< 4.30", 4.38, "< 4.30"]

----------
test system: Ewing sarcoma cell line SK-N-MC; experiment: MTS cell viability (antiproliferative) assay in SK-N-MC; type: cell-based; details: Homo sapiens, SK-N-MC, 72 hours, mean ± SD
recordedEndpoint: IC50 (µM)
Numbers only, in µM.

CN(CCOc1ccccc1)C(=O)c1csc(Nc2cc(N3CCCC3)ncn2)n1
26.2

Give IC50 for each of the items listed below.
1. O=C(NCCOc1ccccc1)c1ccc(Nc2cc(N3CCNCC3)ncn2)cc1 [Compound 13g]
2. Cc1nc(Nc2nc(C(=O)N(C)CCOc3ccccc3)cs2)cc(C2CCCN(CC#N)C2)n1 (centres unmarked)
3. O=C(NCCOc1ccccc1)c1cccc(Nc2cc(N3CCCC3)ncn2)c1 [Compound 11b]
4. CN(CCOc1ccccc1)C(=O)c1csc(Nc2cc(N3CCNCC3)ncn2)n1
5. O=C(NCCOc1ccccc1)c1cccc(Nc2cc(N3CCNCC3)ncn2)c1 [Compound 13b]

# output
[20, 25, 26.9, 12.8, 22.2]
